# Test system: Caenorhabditis elegans N2
# ASSAY_SUMMARY: mean nematode size ln(EXT) after 48 h, plate-adjusted (DMSO control set to 6) (ln(EXT), control-adjusted); higher = larger nematodes / less growth inhibition
# ASSAY_CONDITIONS: 10 µM; exposure time 48 h

# COMPOUND, MEASUREMENT_TARGET, mean nematode size ln(EXT) (ln)
records = [
    ("CCOP(=S)(Oc1cnc(C(C)(C)C)nc1)OC(C)C (stereo unspecified) [Tebupirimfos]", "Caenorhabditis elegans N2", 5.76),
    ("COC(=O)c1ccc(O)cc1 [Methylparaben]", "Caenorhabditis elegans N2", 6.11),
    ("Sc1nc2ccccc2s1 [2-Mercaptobenzothiazole]", "Caenorhabditis elegans N2", 5.76),
    ("OCCOc1ccccc1 [Phenoxyethanol]", "Caenorhabditis elegans N2", 6.07),
    ("O=c1ccc2ccccc2o1 [Coumarin]", "Caenorhabditis elegans N2", 5.93),
    ("Oc1cc(Cl)ccc1Oc1ccc(Cl)cc1Cl [Triclosan]", "Caenorhabditis elegans N2", 5.64),
]

----------
// reported mean nematode size ln(EXT) (ln) for each item listed
# Tested on: Caenorhabditis elegans N2
# ASSAY_SUMMARY: mean nematode size ln(EXT) after 48 h, plate-adjusted (DMSO control set to 6) (ln(EXT), control-adjusted); higher = larger nematodes / less growth inhibition
# ASSAY_CONDITIONS: 1 µM; exposure time 48 h

# COMPOUND, mean nematode size ln(EXT) (ln)
rows = [
    ("COC(=O)Nc1nc2ccccc2[nH]1 [methyl 1H-benzimidazol-2-ylcarbamate]", 5.7),
    ("CCOc1cc(Oc2ccc(C(F)(F)F)cc2Cl)ccc1[N+](=O)[O-]", 5.42),
    ("CN[C@H]1CC[C@@H](c2ccc(Cl)c(Cl)c2)c2ccc(S(N)(=O)=O)cc21", 5.84),
    ("S=C([S-])NCCNC(=S)[S-].S=C([S-])NCCNC(=S)[S-].[Mn+2].[Zn+2]", 5.84),
    ("CCCCCCCCCCCCCCCCO", 5.83),
    ("C=CC(=O)NCNC(=O)C=C [N,N'-Methylenebis(acrylamide)]", 6.06),
    ("Clc1cccc(Cl)c1Cl", 6.04),
    ("O=S(=O)(O)C(F)(F)C(F)(F)C(F)(F)C(F)(F)F [Potassium nonafluoro-1-butanesulfonate]", 5.58),
    ("CC(C)(O)c1ccc(CNC(=O)c2cccnc2Oc2ccc3nonc3c2)cc1", 5.81),
    ("CC(=O)C(C)=CC1C(C)=CCCC1(C)C (stereo not given)", 5.8),
]

----------
# Tested on: Caenorhabditis elegans N2
# ASSAY_SUMMARY: mean nematode size ln(EXT) after 48 h, plate-adjusted (DMSO control set to 6) (ln(EXT), control-adjusted); higher = larger nematodes / less growth inhibition
# ASSAY_CONDITIONS: 50 µM; exposure time 48 h

# MOLECULE, mean nematode size ln(EXT) (ln)
records = [
    ("O=[N+]([O-])c1ccc(O)cc1 [Sodium p-nitrophenolate]", 6.15),
    ("O=C(O)c1ccc([N+](=O)[O-])cc1", 5.77),
    ("c1nc[nH]n1", 6.04),
    ("CCOP(=S)(Oc1ccc([N+](=O)[O-])cc1)c1ccccc1 (stereo unspecified) [O-Ethyl O-(p-nitrophenyl) phenylphosphonothioate]", 4.13),
    ("O=C(O)c1cccc(Oc2ccccc2)c1", 5.83),
    ("ClC1=C(Cl)C2(Cl)C3C(Cl)C(Cl)CC3C1(Cl)C2(Cl)Cl (stereo unspecified)", 3.8),
    ("CNC(=O)/C=C(\\C)OP(=O)(OC)OC", 5.79),
    ("C=CCc1cc(S(=O)(=O)c2ccc(O)c(CC=C)c2)ccc1O [4,4'-sulfonylbis[2-(prop-2-en-1-yl)phenol]]", 5.39),
    ("CCC(C)Nc1c([N+](=O)[O-])cc(C(C)(C)C)cc1[N+](=O)[O-] (stereo unspecified)", 4.89),
    ("COCc1cnc(C2=NC(C)(C(C)C)C(=O)N2)c(C(=O)O)c1 (stereo unspecified)", 6),
    ("[N-]=[N+]=[N-] [Sodium azide]", 5.63),
    ("CCNC(=O)NC(=O)/C(C#N)=N/OC", 5.79),
    ("Cc1cc(O)ccc1Cl", 5.85),
    ("CCCCOC(=O)[C@H](C)Oc1ccc(Oc2ccc(C#N)cc2F)cc1", 6.08),
    ("NCc1cccc(C2CCN(C(=O)c3ccc(C#Cc4ccccc4F)o3)CC2)c1", 4.45),
    ("CCC(C)N(C)C(=O)c1cc2ccccc2c(-c2ccccc2Cl)n1 (stereo unspecified)", 6.11),
    ("Clc1nc(Cl)nc(Nc2ccccc2Cl)n1", 5.99),
    ("O=C(O)C(F)(F)C(F)(F)C(F)(F)C(F)(F)C(F)(F)F", 5.69),
    ("Cc1cc(C)c(O)c(C)c1", 5.87),
    ("CCCCCCCC1CCC(=O)O1 (stereo unspecified) [5-Heptyldihydro-2(3H)-furanone]", 5.76),
    ("COP(=O)(NC(C)=O)SC (stereo unspecified) [Acephate]", 5.85),
    ("Nc1ccc(C(=O)O)cc1", 5.83),
    ("OCCN(CCO)CCO", 5.09),
    ("COc1ccc2cc(S(=O)(=O)N[C@H](CC(=O)N[C@H](Cc3ccc(CN4[C@H](C)CCC[C@@H]4C)cc3)C(=O)N(C)C(C)C)c3ccc4c(c3)OCO4)ccc2c1", 5.76),
    ("O=S1OCC2C(CO1)C1(Cl)C(Cl)=C(Cl)C2(Cl)C1(Cl)Cl (stereo unspecified) [Endosulfan]", 3.51),
    ("CN(C)C(=O)Nc1ccc(Cl)c(Cl)c1", 6.48),
    ("CCOC(N)=O [Urethane (ethyl carbamate)]", 5.95),
    ("NC(=O)N(O)[C@@H]1COc2cc(OCc3ccccc3)ccc21", 5.84),
    ("O=C(N[C@H](c1ccccc1)[C@@H]1CN2CCC1CC2)c1c(Cl)ccc(C(F)(F)F)c1Cl", 5.61),
    ("CCCCCCCCN(C)C", 5.85),
    ("CC(C)(C)OOC(C)(C)CCC(C)(C)OOC(C)(C)C", 5.78),
    ("CC(C)N(C(=O)SCC(Cl)=C(Cl)Cl)C(C)C [Tri-allate]", 5.39),
    ("N#CCCCCC#N", 5.96),
    ("O=P(O)(O)CCCl", 6.03),
    ("CO[C@@H]1COCC[C@@H]1N[C@@H]1CC[C@@](C(=O)N2CCc3ncc(C(F)(F)F)cc3C2)(C(C)C)C1", 5.93),
    ("C1=CCCC=CCCC=CCC1", 5.92),
    ("Cc1cc(=O)[nH]c(=S)[nH]1", 6),
    ("CCN(CC)CCNc1ccc(CNC=O)c2sc3ccc(OC)cc3c(=O)c12", 5.25),
    ("C/C=C/C=C/C(=O)O", 5.89),
    ("COCc1nnc(-c2ccc[n+]([O-])c2)n1-c1c(Cl)c(Cl)cc2[nH]c(=O)c(=O)[nH]c12", 6.17),
    ("CN=C=S [Methyl isothiocyanate]", 5.96),
]

----------
Parameter: mean nematode size ln(EXT) (ln). Scope: all listed entries.
# System: Caenorhabditis elegans N2
# ASSAY_SUMMARY: mean nematode size ln(EXT) after 48 h, plate-adjusted (DMSO control set to 6) (ln(EXT), control-adjusted); higher = larger nematodes / less growth inhibition
# ASSAY_CONDITIONS: 1 µM; exposure time 48 h
MEASURED_QUANTITY: mean nematode size ln(EXT) (ln)

# MOLECULE, ASSAY_VALUE
rows = [
    ("CCc1nc(N)nc(N)c1-c1ccc(Cl)cc1", 5.91),
    ("CC(=O)C1C(=O)C=C(C)OC1=O (stereo not given) [Sodium dehydroacetate]", 5.95),
    ("CC#Cc1cc(C)nc(Nc2ccccc2)n1", 5.81),
    ("CCOP(=O)(NC(C)C)Oc1ccc(SC)c(C)c1 (stereo not given)", 5.56),
    ("CO/C=C(/C(=O)OC)c1ccccc1Oc1cc(Oc2ccccc2C#N)ncn1", 5.87),
]

----------
# Tested on: Caenorhabditis elegans N2
# ASSAY_SUMMARY: mean nematode size ln(EXT) after 48 h, plate-adjusted (DMSO control set to 6) (ln(EXT), control-adjusted); higher = larger nematodes / less growth inhibition
# ASSAY_CONDITIONS: 100 µM; exposure time 48 h
MEASURED_QUANTITY: mean nematode size ln(EXT) (ln)

# COMPOUND, ASSAY_VALUE
records = [
    ("COC(=O)CCCC(=O)OC [Dimethyl glutarate]", 6.04),
    ("Cc1cc(O)ccc1Cl [4-Chloro-3-methylphenol]", 5.78),
    ("Cc1ccc([N+](=O)[O-])cc1C [1,2-Dimethyl-4-nitrobenzene]", 5.8),
    ("Cc1ccc(O)cc1 [4-Methylphenol]", 5.8),
    ("CC(=O)Oc1ccccc1C(=O)O [Aspirin]", 5.89),
    ("CCCOc1sc(C(=O)N2CCC(c3cc(CN)ccc3F)CC2)c(C)c1Br", 3.92),
    ("CCCCOC(=O)[C@H](C)Oc1ccc(Oc2ccc(C#N)cc2F)cc1 [Cyhalofop-butyl]", 5.91),
    ("CC1(C)C(C=C(Cl)Cl)C1C(=O)OC(C#N)c1cccc(Oc2ccccc2)c1 (stereo not given) [Cypermethrin]", 5.71),
    ("CCCN(CCC)N=O [N-Nitrosodipropylamine]", 5.72),
    ("CCOc1cccc(C2(N3CCN(c4ccccc4)CC3)CCC(C)CC2)c1 (stereo not given)", 5.67),
    ("O=Cc1ccco1 [Furfural]", 5.83),
    ("C[C@]12CC[C@@H]3c4ccc(O)cc4CC[C@H]3[C@@H]1CC[C@@H]2O [beta-Estradiol]", 5.94),
    ("O=C(O)C(F)(F)C(F)(F)C(F)(F)C(F)(F)C(F)(F)C(F)(F)F [Perfluoroheptanoic acid]", 5.42),
    ("CCOP(=S)(Oc1ccc([N+](=O)[O-])cc1)c1ccccc1 (stereo not given) [O-Ethyl O-(p-nitrophenyl) phenylphosphonothioate]", 4.01),
    ("O=C(O)C(F)(F)C(F)(F)C(F)(F)C(F)(F)C(F)(F)C(F)(F)C(F)(F)C(F)(F)C(F)(F)F [Perfluorodecanoic acid]", 3.96),
    ("ClC(Cl)=C(c1ccc(Cl)cc1)c1ccc(Cl)cc1 [p,p'-DDE]", 3.93),
    ("O=c1[nH]sc2ccccc12 [1,2-Benzisothiazolin-3-one]", 5.5),
    ("CCc1ccc(O)c(C(C)(C)C)c1 [2-tert-Butyl-4-ethylphenol]", 5.58),
    ("COP(=S)(OC)Oc1ccc([N+](=O)[O-])c(C)c1 [Fenitrothion]", 3.96),
    ("O=NO [Sodium nitrite]", 6.04),
    ("CCCCCCCCCCCCO [1-Dodecanol]", 3.69),
    ("CCc1cccc(CC)c1N [2,6-Diethylaniline]", 5.84),
    ("CCOCN(C(=O)CCl)c1c(C)cccc1CC [Acetochlor]", 6.05),
    ("CCOP(=S)(OCC)Oc1ccc2c(C)c(Cl)c(=O)oc2c1 [Coumaphos]", 3.82),
    ("COc1cc2c(c(OC)c1OC)-c1ccc(OC)c(=O)cc1[C@@H](NC(C)=O)CC2 [Colchicine]", 5.89),
    ("CCCCC(CC)COC(=O)CCCCC(=O)OCc1ccccc1 (stereo not given) [Benzyloctyl adipate (BOA)]", 5.77),
    ("COCC(C)OCC(C)OCC(C)O (stereo not given) [Tripropylene glycol monomethyl ether]", 5.9),
    ("C#CCC1=C(C)C(OC(=O)C2C(C=C(C)C)C2(C)C)CC1=O (stereo not given) [Prallethrin]", 6.04),
    ("c1ccc(Nc2ccccc2)cc1 [Diphenylamine]", 3.87),
    ("CC(C)(OO)c1ccccc1 [Cumene hydroperoxide]", 5.75),
    ("C1=CCCC=CCCC=CCC1 [1,5,9-Cyclododecatriene]", 5.86),
    ("O=c1[nH]cnc2c1ncn2[C@H]1CC[C@@H](CO)O1 [Didanosine]", 5.96),
    ("CC1=C2C[C@H]3[C@@H](CC=C4C[C@@H](O)CC[C@@]43C)[C@@H]2CC[C@]12O[C@@H]1C[C@H](C)CN[C@H]1[C@H]2C [Cyclopamine]", 5.8),
    ("CCCCCCCCCCO [1-Decanol (Decanol)]", 5.69),
    ("c1ccc(NNc2ccccc2)cc1 [1,2-Diphenylhydrazine]", 4.11),
    ("Nc1c(Cl)c(Cl)nc(C(=O)O)c1Cl [Picloram]", 6.14),
    ("CCNc1nc(N)nc(Cl)n1 [6-Deisopropylatrazine]", 6),
    ("CCN(CC)C(=O)c1cc(S(=O)(=O)Cc2ccccc2)c(N2CCC(c3ccccc3)CC2)cc1N(CC)CCN(C)C", 4.3),
    ("C=C(C)C(N)=O [Methacrylamide]", 5.82),
    ("Clc1cc(Cl)c(Cl)cc1Cl [1,2,4,5-Tetrachlorobenzene]", 4.83),
]
